SUBJECT OF TEST: Abl (Homo sapiens)
Sequence (P00519 whole entry): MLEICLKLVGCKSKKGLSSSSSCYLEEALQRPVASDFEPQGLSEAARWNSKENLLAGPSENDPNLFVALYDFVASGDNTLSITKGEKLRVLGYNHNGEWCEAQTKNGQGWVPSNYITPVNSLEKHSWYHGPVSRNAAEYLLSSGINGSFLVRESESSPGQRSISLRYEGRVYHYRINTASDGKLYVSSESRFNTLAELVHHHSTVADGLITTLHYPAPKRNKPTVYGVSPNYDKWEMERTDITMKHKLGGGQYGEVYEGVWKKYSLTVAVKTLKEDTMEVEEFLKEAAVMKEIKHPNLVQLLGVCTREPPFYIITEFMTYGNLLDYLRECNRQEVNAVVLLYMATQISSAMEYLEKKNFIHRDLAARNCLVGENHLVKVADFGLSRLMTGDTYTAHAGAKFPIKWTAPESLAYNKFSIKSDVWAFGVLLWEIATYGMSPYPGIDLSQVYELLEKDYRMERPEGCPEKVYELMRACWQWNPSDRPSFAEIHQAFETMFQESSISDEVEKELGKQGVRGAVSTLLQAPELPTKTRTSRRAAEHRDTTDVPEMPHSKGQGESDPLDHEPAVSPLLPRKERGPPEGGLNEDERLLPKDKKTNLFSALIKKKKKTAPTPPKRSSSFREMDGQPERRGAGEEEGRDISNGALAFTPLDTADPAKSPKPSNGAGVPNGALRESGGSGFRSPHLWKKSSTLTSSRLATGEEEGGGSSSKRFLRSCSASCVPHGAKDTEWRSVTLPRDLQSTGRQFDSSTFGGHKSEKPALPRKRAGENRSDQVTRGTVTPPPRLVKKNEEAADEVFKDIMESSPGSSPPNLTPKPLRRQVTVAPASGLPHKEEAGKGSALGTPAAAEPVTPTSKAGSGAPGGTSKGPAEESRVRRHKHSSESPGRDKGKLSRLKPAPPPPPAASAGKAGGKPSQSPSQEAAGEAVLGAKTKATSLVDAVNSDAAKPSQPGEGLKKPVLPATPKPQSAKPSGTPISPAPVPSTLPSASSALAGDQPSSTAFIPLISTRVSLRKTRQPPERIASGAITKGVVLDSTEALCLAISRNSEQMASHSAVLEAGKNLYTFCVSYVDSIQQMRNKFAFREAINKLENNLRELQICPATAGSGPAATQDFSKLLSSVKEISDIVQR
EXPERIMENTAL DETAILS: Abl kinase assay, IMAP fluorescence polarization
Type: biochemical
PROPERTY MEASURED: Ki (nM)

COMPOUND	PROPERTY MEASURED	QUAL	OBSERVED RESULT
Cc1cccc(F)c1N1Cc2cnc(N)nc2N(C2CCNCC2)C1=O	Ki	=	171
Cc1cccc(F)c1N1Cc2cnccc2N(C2CCNCC2)C1=O	Ki	=	512
Cc1cccc(F)c1N1Cc2cncnc2N(C2CCNCC2)C1=O	Ki	=	4180
Cc1cccc(F)c1N1Cc2cnccc2N(C2CCN(C)CC2)C1=O	Ki	>	10000
Cc1cccc(Cl)c1N1Cc2cnc(N)nc2N(C2CCN(C)CC2)C1=O	Ki	>	1000
CCN1CCC(N2C(=O)N(c3c(C)cccc3F)Cc3cncnc32)CC1	Ki	=	4190
Cc1cccc(F)c1N1Cc2cncnc2N(C2CCN(C)CC2)C1=O	Ki	>	100000
Cc1cccc(Cl)c1N1Cc2cnc(N)cc2N(C2CCNCC2)C1=O	Ki	=	108
CCN1CCC(N2C(=O)N(c3c(C)cccc3F)Cc3cnccc32)CC1	Ki	>	10000

* * *

SUBJECT OF TEST: EPHA2 (Homo sapiens)
Sequence (P29317 24-976): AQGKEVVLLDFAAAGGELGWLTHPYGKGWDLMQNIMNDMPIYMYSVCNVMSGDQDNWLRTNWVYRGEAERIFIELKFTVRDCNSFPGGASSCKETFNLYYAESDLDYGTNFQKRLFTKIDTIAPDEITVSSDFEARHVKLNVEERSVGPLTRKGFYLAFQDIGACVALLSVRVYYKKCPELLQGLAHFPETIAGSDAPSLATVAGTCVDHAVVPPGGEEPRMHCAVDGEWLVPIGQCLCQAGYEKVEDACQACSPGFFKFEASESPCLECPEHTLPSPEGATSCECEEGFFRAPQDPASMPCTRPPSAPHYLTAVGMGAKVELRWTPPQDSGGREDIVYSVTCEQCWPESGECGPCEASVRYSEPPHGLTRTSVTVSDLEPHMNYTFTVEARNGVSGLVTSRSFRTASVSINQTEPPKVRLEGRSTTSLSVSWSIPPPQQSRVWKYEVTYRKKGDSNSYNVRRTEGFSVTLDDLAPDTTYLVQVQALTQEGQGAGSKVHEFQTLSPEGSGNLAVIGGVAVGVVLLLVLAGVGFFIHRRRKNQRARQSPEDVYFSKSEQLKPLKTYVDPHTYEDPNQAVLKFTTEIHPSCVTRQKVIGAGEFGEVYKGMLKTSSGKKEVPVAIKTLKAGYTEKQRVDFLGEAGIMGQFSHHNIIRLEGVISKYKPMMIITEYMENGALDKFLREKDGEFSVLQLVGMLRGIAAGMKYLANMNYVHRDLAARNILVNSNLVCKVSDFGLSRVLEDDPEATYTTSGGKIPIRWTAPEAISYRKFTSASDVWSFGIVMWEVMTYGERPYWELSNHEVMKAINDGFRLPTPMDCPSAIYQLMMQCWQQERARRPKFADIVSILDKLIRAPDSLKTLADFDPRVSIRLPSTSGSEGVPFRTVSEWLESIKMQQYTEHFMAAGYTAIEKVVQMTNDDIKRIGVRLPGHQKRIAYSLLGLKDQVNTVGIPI
EXPERIMENTAL DETAILS: EPHA2 kinase assay, IMAP fluorescence polarization
Assay type: biochemical
MEASUREMENT SETUP: 50 or 100 μM ATP; average
pKi: −log10 of the molar value.

COMPOUND	QUAL	pKi
Cc1cccc(F)c1N1Cc2cnc(N)nc2N([C@H]2CC[C@H](N(C)C)CC2)C1=O [Example 45]	=	7.47
Cc1cccc(F)c1N1Cc2cnc(N)nc2N([C@H]2CCCCN(C)C2)C1=O [Example 36]	=	6.91
Cc1cccc(F)c1N1Cc2cnc(N)cc2N(CC2CCNCC2)C1=O [Example 2]	=	7.41
Cc1cccc(F)c1N1Cc2cnc(N)nc2N(C2CNC2)C1=O [Example 13]	=	6.43
CNC1CCCC(N2C(=O)N(c3c(C)cccc3F)Cc3cnc(N)cc32)C1 (centres unmarked) [Example 57]	=	7.37
Cc1cccc(F)c1N1Cc2cnc(N)cc2N([C@H]2CCNC2)C1=O [Example 78]	<	6.00
Cc1cccc(F)c1N1Cc2cnc(N(C)C)cc2N([C@H]2CC[C@@H](N(C)C)CC2)C1=O [Example 41]	<	5.00
Cc1cccc(F)c1N1Cc2cnc(N)cc2N([C@@H]2CCCN(C)C2)C1=O [Example 81]	=	7.35
Cc1cccc(F)c1N1Cc2cnc(N)cc2N([C@H]2CC[C@H](N(C)C)CC2)C1=O [Example 59]	=	6.91
Cc1cccc(F)c1N1Cc2cnc(N)nc2N([C@H]2CC[C@@H](N(C)C)CC2)C1=O [Example 39]	=	7.45
CN[C@H]1CC[C@@H](N2C(=O)N(c3c(C)cccc3F)Cc3cnc(N)nc32)CC1 [Example 60]	=	7.40
Cc1cccc(F)c1N1Cc2cnc(N)cc2N([C@H]2CCCN(C)C2)C1=O [Example 82]	=	7.26
Cc1cccc(F)c1N1Cc2cnc(N)nc2N([C@@H]2CCCNC2)C1=O [Example 73]	=	7.25
Cc1cccc(F)c1N1Cc2cnc(N)cc2N([C@H]2CC[C@@H](N)CC2)C1=O [Example 62]	=	7.55
Cc1cccc(F)c1N1Cc2cnc(N)nc2N(C2CN(C)C2)C1=O [Example 21]	=	6.41
Cc1cccc(Cl)c1N1Cc2cnc(N)nc2N(C2CN(C)C2)C1=O [Example 23]	=	6.79
Cc1cccc(F)c1N1Cc2cnc(N)cc2N([C@H]2CCCNCC2)C1=O [Example 54]	=	6.67
Cc1cccc(F)c1N1Cc2cnc(N)cc2N([C@H]2CC[C@@H](N(C)C)CC2)C1=O [Example 46]	=	7.07
CN[C@H]1CC[C@H](N2C(=O)N(c3c(C)cccc3F)Cc3cnc(N)nc32)CC1 [Example 61]	=	7.70
Cc1cccc(F)c1N1Cc2cnc(N)cc2N([C@@H]2CCCCNC2)C1=O [Example 50]	=	7.87
Cc1cccc(F)c1N1Cc2cnc(N)nc2N([C@H]2CC[C@@H](N)CC2)C1=O [Example 74]	=	7.79
Cc1cccc(F)c1N1Cc2cnc(N)nc2N([C@@H]2CCCCN(C)C2)C1=O [Example 38]	=	6.72
CNc1cc2c(cn1)CN(c1c(C)cccc1F)C(=O)N2[C@H]1CC[C@@H](N(C)C)CC1 [Example 40]	=	6.98
Cc1cccc(F)c1N1Cc2cnc(N)cc2N([C@H]2CCCCNC2)C1=O [Example 53]	=	6.09
Cc1cccc(F)c1N1Cc2cnc(N)cc2N([C@H]2CCC[C@@H](N)C2)C1=O (relative stereo) [Example 56]	=	7.37
CNc1cc2c(cn1)CN(c1c(C)cccc1F)C(=O)N2C1CN(C)C1 [Example 10]	<	6.00
Cc1cccc(F)c1N1Cc2cnc(N)nc2N([C@H]2CC[C@H](N)CC2)C1=O [Example 77]	=	7.76
Cc1cccc(F)c1N1Cc2cnc(N)cc2N(C2CN(C)C2)C1=O [Example 5]	<	6.00
Cc1cccc(F)c1N1Cc2cnc(N)cc2N([C@@H]2CCNC2)C1=O [Example 47]	=	6.61
Cc1cccc(F)c1N1Cc2cnc(N)cc2N([C@@H]2CCCN(C)CC2)C1=O [Example 84]	=	7.49
Cc1cccc(F)c1N1Cc2cnc(N)cc2N([C@H]2CCCN(C)CC2)C1=O [Example 86]	=	6.30
Cc1cccc(F)c1N1Cc2cnc(N)nc2N([C@@H]2CCCCNC2)C1=O [Example 72]	=	7.63
Cc1cccc(F)c1N1Cc2cnc(N)nc2N(C2CCCC(N)C2)C1=O (centres unmarked) [Example 75]	=	8.03
CN[C@H]1CC[C@@H](N2C(=O)N(c3c(C)cccc3F)Cc3cnc(N)cc32)CC1 [Example 63]	=	7.24
Cc1cccc(F)c1N1Cc2cnc(N)nc2N([C@@H]2CCCN(C)C2)C1=O [Example 42]	=	7.17
